Entries and their IC50 ratio values follow.
target: Delta-type opioid receptor (Mus musculus) (UniProt P32300)
Sequence (P32300 whole entry): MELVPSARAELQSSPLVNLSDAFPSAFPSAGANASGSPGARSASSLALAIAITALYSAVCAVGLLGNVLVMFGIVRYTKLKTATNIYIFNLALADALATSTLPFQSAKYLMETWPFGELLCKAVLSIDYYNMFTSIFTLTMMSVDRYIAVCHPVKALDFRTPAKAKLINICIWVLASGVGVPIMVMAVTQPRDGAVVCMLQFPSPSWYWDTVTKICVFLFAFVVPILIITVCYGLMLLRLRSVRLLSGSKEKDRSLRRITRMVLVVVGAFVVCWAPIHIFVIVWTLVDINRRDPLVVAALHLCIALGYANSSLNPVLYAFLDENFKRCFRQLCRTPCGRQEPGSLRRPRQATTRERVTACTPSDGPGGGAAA
assay remarks: Ratio of IC50 of [D-Ala2,D-Leu5]enkephalin (DADLE) in the presence (100 nM) to that of [(DADLE) alone, against delta opioid receptor in mouse vas deferens preparation
// return just the number, without any unit appended

The examples below pair each entry with its known result.
molecule: CCC(=N)NCc1ccc2[nH]c3c(c2c1)C[C@@]1(O)[C@H]2Cc4ccc(O)c5c4[C@@]1(CCN2CC1CC1)C3O5 (some centres undefined)
IC50 ratio: 2.28

molecule: CCCCC(=N)NCc1ccc2[nH]c3c(c2c1)C[C@@]1(O)[C@H]2Cc4ccc(O)c5c4[C@@]1(CCN2CC1CC1)C3O5 (some centres undefined)
IC50 ratio: 4.71

molecule: CCCC(=N)NCc1ccc2[nH]c3c(c2c1)C[C@@]1(O)[C@H]2Cc4ccc(O)c5c4[C@@]1(CCN2CC1CC1)C3O5 (some centres undefined)
IC50 ratio: 3

q: Return value of IC50 ratio for input `Oc1ccc2c3c1O[C@H]1c4[nH]c5ccccc5c4C[C@@]4(O)[C@@H](C2)N(CC2CC2)CC[C@]314` , no commentary.
a: 459
